Reference source for all entries: patent US20140120095A1

Measured kd1 accompanies every entry in the list below.
biological target: T1, recombinant human VEGF165 (human, UniProt P15692-4 27-191, biotinylated in the competition assays); experiment: SPR Biacore, immobilised hVEGF165, two state reaction model
T1 construct: Bought protein; also called hVEGF165; rhVEGF165
T1 sequence (P15692 other isoform, or with tags, fused parts or gaps): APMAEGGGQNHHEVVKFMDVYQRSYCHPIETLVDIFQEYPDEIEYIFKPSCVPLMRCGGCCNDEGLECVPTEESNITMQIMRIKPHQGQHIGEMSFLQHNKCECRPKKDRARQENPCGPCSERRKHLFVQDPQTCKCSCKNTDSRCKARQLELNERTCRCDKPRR
Express it in s⁻¹; write the number only.

# annotated cases, reported kd1 shown
binder	kd1 / s⁻¹
VEGFBII025 (VHH, not shown: small tags and cut ends, Bivalent anti-VEGF VHH; also called VEGFBII10E07-40GS-23B04) EVQLVESGGGLVQAGGSLRLSCAASGRTFSNYAMGWFRQAPGKERVLVADISSSGINTYVADAVKGRFTISRDNAKNTVYLQMNSLKPEDTAVYYCAASAWWYSQMARDNYRYWGQGTQVTVSSGGGGSGGGGSGGGGSGGGGSGGGGSGGGGSGGGGSGGGGSEVQLVESGGGLVQTGDSLRLSCEVSGRTFSSYSMGWFRQAQGKEREFVVAISKGGYKYDSVSLEGRFTISKDNAKNTVYLQINSLKPEDTAVYYCASSRAYGSSRLRLADTYEYWGQGTQVTVSS	0.017
VEGFBII022 (VHH, not shown: small tags and cut ends, Bivalent (heterodimeric) anti-VEGF VHH; also called VEGFBII23B04-9GS-5B05) EVQLVESGGGLVQTGDSLRLSCEVSGRTFSSYSMGWFRQAQGKEREFVVAISKGGYKYDSVSLEGRFTISKDNAKNTVYLQINSLKPEDTAVYYCASSRAYGSSRLRLADTYEYWGQGTQVTVSSGGGGSGGGSEVQLVESGGGLVQPGGSLRLSCVASGIRFMSMAWYRQAPGKHRELVARISSGGTTAYVDSVKGRFTISRDNSKNTVYLQMNSLKAEDTAVYYCNTFSSRPNPWGAGTQVTVSS	0.0091
VEGFBII021 (VHH, not shown: small tags and cut ends, Bivalent (heterodimeric) anti-VEGF VHH; also called VEGFBII23B04-40GS-5B05) EVQLVESGGGLVQTGDSLRLSCEVSGRTFSSYSMGWFRQAQGKEREFVVAISKGGYKYDSVSLEGRFTISKDNAKNTVYLQINSLKPEDTAVYYCASSRAYGSSRLRLADTYEYWGQGTQVTVSSGGGGSGGGGSGGGGSGGGGSGGGGSGGGGSGGGGSGGGGSEVQLVESGGGLVQPGGSLRLSCVASGIRFMSMAWYRQAPGKHRELVARISSGGTTAYVDSVKGRFTISRDNSKNTVYLQMNSLKAEDTAVYYCNTFSSRPNPWGAGTQVTVSS	0.011
VEGFBII023 (VHH, not shown: small tags and cut ends, Bivalent anti-VEGF VHH; also called VEGFBII23B04-40GS-10E07) EVQLVESGGGLVQTGDSLRLSCEVSGRTFSSYSMGWFRQAQGKEREFVVAISKGGYKYDSVSLEGRFTISKDNAKNTVYLQINSLKPEDTAVYYCASSRAYGSSRLRLADTYEYWGQGTQVTVSSGGGGSGGGGSGGGGSGGGGSGGGGSGGGGSGGGGSGGGGSEVQLVESGGGLVQAGGSLRLSCAASGRTFSNYAMGWFRQAPGKERVLVADISSSGINTYVADAVKGRFTISRDNAKNTVYLQMNSLKPEDTAVYYCAASAWWYSQMARDNYRYWGQGTQVTVSS	0.018
VEGFBII010 (VHH, not shown: small tags and cut ends, Homodimeric bivalent anti-VEGF VHH; also called VEGFBII23B04-35GS-23B04) EVQLVESGGGLVQTGDSLRLSCEVSGRTFSSYSMGWFRQAQGKEREFVVAISKGGYKYDSVSLEGRFTISKDNAKNTVYLQINSLKPEDTAVYYCASSRAYGSSRLRLADTYEYWGQGTQVTVSSGGGGSGGGGSGGGGSGGGGSGGGGSGGGGSGGGGSEVQLVESGGGLVQTGDSLRLSCEVSGRTFSSYSMGWFRQAQGKEREFVVAISKGGYKYDSVSLEGRFTISKDNAKNTVYLQINSLKPEDTAVYYCASSRAYGSSRLRLADTYEYWGQGTQVTVSS	0.017

Turning now to a further record.
Query: Fill in the blank: the reported kd1 of VEGFBII024 (VHH, not shown: small tags and cut ends, Bivalent anti-VEGF VHH; also called VEGFBII23B04-40GS-86H09) EVQLVESGGGLVQTGDSLRLSCEVSGRTFSSYSMGWFRQAQGKEREFVVAISKGGYKYDSVSLEGRFTISKDNAKNTVYLQINSLKPEDTAVYYCASSRAYGSSRLRLADTYEYWGQGTQVTVSSGGGGSGGGGSGGGGSGGGGSGGGGSGGGGSGGGGSGGGGSEVQLVESGGGLVQAGGSLRLSCTASGSAFKSYRMGWFRRTPGKEDEFVASISWTYGSTFYADSVKGRFTMSRDKAKNAGYLQMNSLKPEDTALYYCAAGAQSDRYNIRSYDYWGQGTQVTVSS is ____.
Result: 0.013
